Source of measurements: ChEMBL document CHEMBL2417389

Biological target: Renin (Macaca fascicularis, UniProt Q6DLS0)
Sequence (Q6DLS0 whole entry): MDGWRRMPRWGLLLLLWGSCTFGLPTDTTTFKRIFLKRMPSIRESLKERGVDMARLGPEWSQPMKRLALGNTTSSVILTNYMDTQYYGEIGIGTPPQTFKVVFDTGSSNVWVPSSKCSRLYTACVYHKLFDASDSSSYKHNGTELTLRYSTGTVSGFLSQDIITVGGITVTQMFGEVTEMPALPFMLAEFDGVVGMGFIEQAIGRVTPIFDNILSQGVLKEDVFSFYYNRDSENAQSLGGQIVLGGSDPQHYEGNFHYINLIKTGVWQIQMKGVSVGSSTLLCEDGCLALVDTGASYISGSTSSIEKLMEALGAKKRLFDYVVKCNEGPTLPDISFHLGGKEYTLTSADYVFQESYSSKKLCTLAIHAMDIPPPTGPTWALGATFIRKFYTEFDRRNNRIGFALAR
Test: Inhibition of cynomolgus monkey plasma renin assessed as angiotensin 1 level after 60 mins by competitive radioimmunoassay
pIC50: −log10 of the molar value.
pIC50 by entry:

{"structure.smiles": "CC(C)C[C@@H](NC(=O)[C@@H]1CNC[C@H](N2CC(=O)N(c3ccccc3Cl)CC2(C)C)C1)c1cncc(F)c1", "pIC50": 8.16}
{"structure.smiles": "CC[C@@H](NC(=O)[C@@H]1CNC[C@H](N2CC(=O)N(c3ccccc3Cl)CC2(C)C)C1)c1ccc(F)cc1", "pIC50": 7.72}
{"structure.smiles": "Cc1ccc(F)cc1N1CC(C)(C)N([C@H]2CNC[C@@H](C(=O)N[C@H](CC(C)C)c3ccc(F)cn3)C2)CC1=O", "pIC50": 7.80}
{"structure.smiles": "CC[C@@H](NC(=O)[C@@H]1CNC[C@H](N2CC(=O)N(c3ccccc3Cl)CC2(C)C)C1)c1ccccc1F", "pIC50": 7.96}
{"structure.smiles": "CC[C@@H](NC(=O)[C@@H]1CNC[C@H](N2CC(=O)N(c3ccccc3Cl)CC2(C)C)C1)c1cccc(Cl)c1", "pIC50": 7.60}

* * *

Assay: AUC (0 to 24 hrs) in Sprague-Dawley rat at 10 mg/kg, po
Format: ADME, organism-based
Parameters: time < 24 hr, dose 10 mg/kg, route oral
Settings: plasma

{"structure.smiles": "CC[C@@H](NC(=O)[C@@H]1CNC[C@H](N2CC(=O)N(c3ccccc3Cl)CC2(C)C)C1)c1ccccc1.O=C(O)/C=C/C(=O)O", "AUC(0-t) at 24 h [ng·h/mL]": 1500}

* * *

Test: Oral bioavailability in cynomolgus monkey at 10 mg/kg
Type: ADME, organism-based, Macaca fascicularis
Conditions: in vivo

{"structure.smiles": "Cc1ccccc1N1CC(C)(C)N([C@H]2CNC[C@@H](C(=O)N[C@H](CC(C)C)c3ccc(F)cn3)C2)CC1=O.O=C(O)/C=C/C(=O)O", "unit.annotation": "%", "bioavailability": 25}

* * *

Experiment: Metabolic stability in monkey liver microsomes assessed as compound remaining after 30 mins
Format: ADME, Macaca mulatta, Microsome
Settings: rhesus monkey, read-out: Stability

{"structure.smiles": "Cc1ccccc1N1CC(C)(C)N([C@H]2CNC[C@@H](C(=O)N[C@H](CC(C)C)c3ccc(F)cn3)C2)CC1=O.O=C(O)/C=C/C(=O)O", "unit.annotation": "%", "remaining at 0.5 h": 84}
